target: HER2 YVMA (Homo sapiens, UniProt P04626, INS775YVMA); construct: expressed in transfected cells; host or cells: BaF3 (murine pro-B) transformants; test: Assay for cell proliferation (BaF3 transformants, CellTiterGlo), Activity for Inhibiting HER2; format: cell-based; settings: Table B (Example 2), potency code; 3 days drug
Sequence (P04626 with tags, fused parts or gaps INS775YVMA): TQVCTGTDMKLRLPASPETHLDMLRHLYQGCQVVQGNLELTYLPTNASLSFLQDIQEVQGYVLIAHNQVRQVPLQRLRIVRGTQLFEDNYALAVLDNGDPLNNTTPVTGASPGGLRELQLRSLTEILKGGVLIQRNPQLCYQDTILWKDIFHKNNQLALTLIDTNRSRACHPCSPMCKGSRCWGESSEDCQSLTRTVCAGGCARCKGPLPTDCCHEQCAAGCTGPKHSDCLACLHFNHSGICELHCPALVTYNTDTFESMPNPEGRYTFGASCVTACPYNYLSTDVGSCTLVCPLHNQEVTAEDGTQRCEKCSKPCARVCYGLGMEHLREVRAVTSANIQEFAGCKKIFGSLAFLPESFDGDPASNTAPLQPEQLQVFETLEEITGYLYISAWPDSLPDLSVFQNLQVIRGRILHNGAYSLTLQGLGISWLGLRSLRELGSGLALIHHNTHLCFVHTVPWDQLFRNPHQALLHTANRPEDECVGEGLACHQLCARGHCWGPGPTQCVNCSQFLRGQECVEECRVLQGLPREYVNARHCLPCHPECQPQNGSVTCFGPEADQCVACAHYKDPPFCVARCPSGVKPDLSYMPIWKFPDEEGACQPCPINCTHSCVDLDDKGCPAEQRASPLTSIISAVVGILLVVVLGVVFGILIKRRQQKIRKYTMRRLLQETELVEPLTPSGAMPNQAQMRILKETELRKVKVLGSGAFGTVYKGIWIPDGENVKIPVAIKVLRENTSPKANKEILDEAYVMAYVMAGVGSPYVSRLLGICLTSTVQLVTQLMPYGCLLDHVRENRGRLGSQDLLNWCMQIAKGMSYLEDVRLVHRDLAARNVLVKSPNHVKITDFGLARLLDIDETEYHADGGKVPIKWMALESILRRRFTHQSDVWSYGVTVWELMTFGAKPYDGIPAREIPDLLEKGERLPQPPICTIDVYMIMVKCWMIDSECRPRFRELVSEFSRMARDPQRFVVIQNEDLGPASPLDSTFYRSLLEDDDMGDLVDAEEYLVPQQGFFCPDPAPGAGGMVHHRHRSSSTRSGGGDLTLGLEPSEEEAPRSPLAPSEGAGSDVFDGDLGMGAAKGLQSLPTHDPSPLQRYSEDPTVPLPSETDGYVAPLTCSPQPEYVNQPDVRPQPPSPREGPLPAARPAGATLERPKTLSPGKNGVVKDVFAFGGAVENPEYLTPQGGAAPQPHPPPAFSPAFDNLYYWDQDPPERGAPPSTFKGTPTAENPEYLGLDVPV
pIC50: −log10 of the molar value.
What pIC50 was measured for each of the following?

Example entries and their recorded answers appear below.
# input Value lookup for pIC50; key = `C=CC(=O)Nc1cc2c(Nc3ccc4c(cnn4Cc4cccc(F)c4)c3)ncnc2cc1C#CC(C)(C)N1CCN(C)CC1`
# output 7.00 to 7.30

# input Lookup `C=CC(=O)Nc1cc2c(Nc3ccc4c(cnn4Cc4cccc(F)c4)c3)ncnc2cc1OCCN1CCOCC1`
# output 7.52 to 7.70

# input Lookup `C=CC(=O)Nc1cc2c(Nc3ccc4c(cnn4Cc4cccc(F)c4)c3)ncnc2cc1OCCN1CCCCC1`
# output 6.70 to 7.00

Kindly review the next compound as well.
# input Value lookup for pIC50; key = `C=CC(=O)Nc1cc2c(Nc3ccc4c(cnn4Cc4cccc(F)c4)c3)ncnc2cc1OCCN(C)C`
# output 7.00 to 7.30
